B1: Hairpin Ribozyme (parent)
chain: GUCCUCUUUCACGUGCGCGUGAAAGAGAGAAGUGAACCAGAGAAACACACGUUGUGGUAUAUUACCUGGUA

# Variants of: B1
# ASSAY_TEXT: self-cleavage, relative activity (ratio to wild type); higher = more cleavage; co-transcriptional
Outcome: met for self-cleavage of at least 0.3; not met for anything lower.

> print(dat)
   variant.description  label.class
1            U20C A61C      not met
2            U33C U62C      not met
3            U53G A59C      not met
4            G25U A36C          met
5            U20A A22G          met
6             U8G A22G          met
